Values from ChEMBL document CHEMBL5365530

Experiment: Volume of distribution in ICR mouse at 1 mg/kg, iv measured for 24 hrs by LC-MS/MS analysis
Format: ADME, organism-based
Conditions: in vivo
Readout: Vd

// query Bench note: what Vd did COc1cc(/N=C(\N)N2CCN(c3cnc(-c4cccc(Cl)c4Cl)c(N)n3)CC2)ccc1C#N show?
// result 8.4 L/kg

* * *

Molecular target: Tyrosine-protein phosphatase non-receptor type 6 (Homo sapiens)
Sequence (P29350 whole entry): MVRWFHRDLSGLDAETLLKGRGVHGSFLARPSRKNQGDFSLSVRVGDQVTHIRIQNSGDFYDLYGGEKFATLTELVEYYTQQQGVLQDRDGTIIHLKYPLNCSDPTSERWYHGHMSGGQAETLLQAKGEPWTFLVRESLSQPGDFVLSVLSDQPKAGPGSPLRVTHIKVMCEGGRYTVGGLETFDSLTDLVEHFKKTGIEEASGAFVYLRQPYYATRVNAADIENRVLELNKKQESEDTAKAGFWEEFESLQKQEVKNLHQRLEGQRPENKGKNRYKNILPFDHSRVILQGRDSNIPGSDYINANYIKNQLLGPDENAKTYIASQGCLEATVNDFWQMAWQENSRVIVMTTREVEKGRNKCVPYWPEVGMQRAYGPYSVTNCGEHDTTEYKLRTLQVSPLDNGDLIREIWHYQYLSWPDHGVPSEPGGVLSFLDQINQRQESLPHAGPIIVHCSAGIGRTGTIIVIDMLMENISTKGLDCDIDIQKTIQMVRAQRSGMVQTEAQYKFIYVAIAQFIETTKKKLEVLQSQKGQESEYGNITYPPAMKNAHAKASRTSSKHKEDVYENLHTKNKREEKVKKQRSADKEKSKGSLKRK
Readout: IC50

// query Bench note: what IC50 did COc1cc(/N=C(\N)N2CCN(c3cnc(-c4cccc(Cl)c4Cl)c(N)n3)CC2)ccc1C#N show?
// result > 30 µM

* * *

Biological target: Tyrosine-protein phosphatase non-receptor type 11 (Homo sapiens)
Sequence (Q06124 whole entry): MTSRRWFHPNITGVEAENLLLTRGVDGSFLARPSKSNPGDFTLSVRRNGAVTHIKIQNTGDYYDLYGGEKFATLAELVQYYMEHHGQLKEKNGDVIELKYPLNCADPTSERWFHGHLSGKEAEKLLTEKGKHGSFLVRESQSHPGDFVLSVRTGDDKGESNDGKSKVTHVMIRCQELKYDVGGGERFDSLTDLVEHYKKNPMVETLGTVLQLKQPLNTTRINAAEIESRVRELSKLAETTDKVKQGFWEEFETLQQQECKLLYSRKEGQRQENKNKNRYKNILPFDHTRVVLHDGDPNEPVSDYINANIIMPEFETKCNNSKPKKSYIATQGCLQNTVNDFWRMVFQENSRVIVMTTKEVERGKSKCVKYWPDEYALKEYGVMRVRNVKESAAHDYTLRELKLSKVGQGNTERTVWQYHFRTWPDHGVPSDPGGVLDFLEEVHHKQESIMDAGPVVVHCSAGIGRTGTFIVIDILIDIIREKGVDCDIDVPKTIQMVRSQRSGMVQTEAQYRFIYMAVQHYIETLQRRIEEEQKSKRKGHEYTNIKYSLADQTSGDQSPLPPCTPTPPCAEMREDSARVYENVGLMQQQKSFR
Test: Allosteric Inhibition of H2N-LN(pY)IDLDLV(dPEG8)LST(pY)ASINFQKASINFQK-amide-activated SHP2 (unknown origin) using DiFMUP as substrate pretreated with enzyme for 1 hr followed by substrate addition and measured after 20 mins by fluorescence based analysis
Param label: returns criterion met when IC50 < 300 nM, returns criterion not met otherwise, including exact equality.

{"columns": ["Smi", "Answer Label"],
 "data": [
  ["N/C(=N\\c1ccccn1)N1CCN(c2cnc(-c3cccc(Cl)c3Cl)c(N)n2)CC1", "criterion met"],
  ["N#Cc1cc(/N=C(\\N)N2CCN(c3cnc(-c4cccc(Cl)c4Cl)c(N)n3)CC2)cs1", "criterion met"],
  ["N/C(=N\\c1cccnc1)N1CCN(c2cnc(-c3cccc(Cl)c3Cl)c(N)n2)CC1", "criterion met"]
]}

Now turn to the next compound.
// query Lab note: confirm whether the reported IC50 for this compound is below 300 nM, equality not counting. compound: N/C(=N\c1ccncc1)N1CCN(c2cnc(-c3cccc(Cl)c3Cl)c(N)n2)CC1
// result criterion met

* * *

System: MIA PaCa-2
Assay: Antiproliferative activity against human MIA PaCa-2 cells harboring KRASG12C mutant assessed as inhibition of cell growth incubated for 72 hrs by CellTiter-LumiII Luminescent assay
Type: functional, cell-based
Conditions: MIA PaCa-2, 72 h
IC50 values for the compounds below.
Numeric only. Scale: µM

{"columns": ["Smi", "Readout", "Unit Abbrev", "Observed"],
 "data": [
  ["CC1(N)CCN(c2cnc(-c3cccc(Cl)c3Cl)c(N)n2)CC1", "IC50", "µM", 41.9]
]}

--- query ---
// query Bench note: what IC50 did COc1cc(/N=C(\N)N2CCN(c3cnc(-c4cccc(Cl)c4Cl)c(N)n3)CC2)ccc1C#N show?
// result 6.8

* * *

Assay: AUC in ICR mouse at 10 mg/kg, po measured for 24 hrs by LC-MS/MS analysis
Format: ADME, organism-based
Set-up: dose 10 mg/kg, time 24 hrs, route po
Details: in vivo
Readout: AUC at 24 h (µM·h)
Numeric only. Scale: µM·h

// query Bench note: what AUC at 24 h did COc1cc(/N=C(\N)N2CCN(c3cnc(-c4cccc(Cl)c4Cl)c(N)n3)CC2)ccc1C#N show?
// result 4.32

* * *

Biological target: Tyrosine-protein phosphatase non-receptor type 11 (Homo sapiens)
Experiment: Allosteric Inhibition of H2N-LN(pY)IDLDLV(dPEG8)LST(pY)ASINFQKASINFQK-amide-activated SHP2 (unknown origin) using DiFMUP as substrate pretreated with enzyme for 1 hr followed by substrate addition and measured after 20 mins by fluorescence based analysis
pIC50: −log10 of the molar value.
Recorded pIC50 determines the group label, using band 1: < 6; band 2: ≥ 6 and < 7; band 3: ≥ 7

See these solved cases before continuing.
{"columns": ["Smi", "Answer Label"],
 "data": [
  ["N#Cc1ccc(/N=C(\\N)N2CCN(c3cnc(-c4cccc(Cl)c4Cl)c(N)n3)CC2)cc1", "band 3"],
  ["COc1cccc(/N=C(\\N)N2CCN(c3cnc(-c4cccc(Cl)c4Cl)c(N)n3)CC2)c1", "band 3"],
  ["N/C(=N\\c1cccs1)N1CCN(c2cnc(-c3cccc(Cl)c3Cl)c(N)n2)CC1", "band 2"],
  ["N/C(=N\\c1cncnc1)N1CCN(c2cnc(-c3cccc(Cl)c3Cl)c(N)n2)CC1", "band 2"],
  ["Nc1nc(N2CCN(S(N)(=O)=O)CC2)cnc1-c1cccc(Cl)c1Cl", "band 1"]
]}

// query Band for N=C(N)N1CCN(c2cnc(-c3cccc(Cl)c3Cl)c(N)n2)C(=O)C1 ?
// result band 1

// query Band for N/C(=N\c1ccsc1)N1CCN(c2cnc(-c3cccc(Cl)c3Cl)c(N)n2)CC1 ?
// result band 3

// query Band for COc1cc(/N=C(\N)N2CCN(c3cnc(-c4cccc(Cl)c4Cl)c(N)n3)CC2)ccc1C#N ?
// result band 3

// query Band for CN(CCN(C)c1cnc(-c2cccc(Cl)c2Cl)c(N)n1)C(=N)N ?
// result band 1

// query Band for CN/C(=N\c1ccc(C#N)cc1)N1CCN(c2cnc(-c3cccc(Cl)c3Cl)c(N)n2)CC1 ?
// result band 1
